Kindly supply the reported hemolysis at 1 h, 1.56 µM values for the records listed here.
assay: Hemolytic activity against human RBC at 1.56 uM after 1 hr by Drabkin's assay relative to control; type: ADME, cell-based, Erythrocyte; conditions: human red blood cells (erythrocytes), read-out: Activity
I'd appreciate it if you included the unit after the number.

Some compounds with known hemolysis at 1 h, 1.56 µM results, for comparison:
CC(C)(C)OC(=O)[C@@H]1CCCN1C(=O)N1CCCN1C(=O)[C@@H]1CCCN1C(=O)N1CCCN1C(=O)[C@@H]1CCCN1C(=O)N1CCCN1C(=O)[C@@H]1CCCN1C(=O)N1CCCN1C(=O)[C@@H]1CCCN1C(=O)N1CCCN1C(=O)[C@@H]1CCCN1C(=O)N1CCCN1C(=O)[C@@H]1CCCN1C(=O)N1CCCN1C(=O)[C@@H]1CCCN1C(=O)N1CCCN1C(=O)OCc1ccccc1	-0.24%
CC(=O)N1CCCN1C(=O)N1CCC[C@H]1C(=O)N1CCCN1C(=O)N1CCC[C@H]1C(=O)N1CCCN1C(=O)N1CCC[C@H]1C(=O)N1CCCN1C(=O)N1CCC[C@H]1C(=O)N1CCCN1C(=O)N1CCC[C@H]1C(=O)N1CCCN1C(=O)N1CCC[C@H]1C(=O)N1CCCN1C(=O)N1CCC[C@H]1C(=O)N1CCCN1C(=O)N1CCC[C@H]1C(=O)NCCO	-0.12%

# compound CC(C)(C)OC(=O)[C@@H]1CCCN1C(=O)N1CCCN1C(=O)[C@@H]1CCCN1C(=O)N1CCCN1C(=O)[C@@H]1CCCN1C(=O)N1CCCN1C(=O)[C@@H]1CCCN1C(=O)N1CCCN1C(=O)OCc1ccccc1 ; its hemolysis at 1 h, 1.56 µM = 0.361%

====

assay: Hemolytic activity against human RBC at 100 uM after 1 hr by Drabkin's assay relative to control; assay type: ADME, cell-based, Erythrocyte; conditions: human red blood cells (erythrocytes), read-out: Activity
Kindly supply the reported hemolysis at 1 h, 100 µM values for the records listed here.
Answers are plain numbers, in %.

Some molecules with known hemolysis at 1 h, 100 µM results, for comparison:
O=CN1CCCN1C(=O)N1CCC[C@H]1C(=O)N1CCCN1C(=O)N1CCC[C@H]1C(=O)N1CCCN1C(=O)N1CCC[C@H]1C(=O)N1CCCN1C(=O)N1CCC[C@H]1C(=O)N1CCCN1C(=O)N1CCC[C@H]1C(=O)NCCO	-0.251
O=C(O)[C@@H]1CCCN1C(=O)N1CCCN1C(=O)[C@@H]1CCCN1C(=O)N1CCCN1C(=O)[C@@H]1CCCN1C(=O)N1CCCN1C(=O)[C@@H]1CCCN1C(=O)N1CCCN1C(=O)OCc1ccccc1	0.542
CC(C)(C)OC(=O)N1CCC[C@H]1C(=O)N1CCCN1C(=O)N1CCC[C@H]1C(=O)N1CCCN1C(=O)N1CCC[C@H]1C(=O)N1CCCN1C(=O)N1CCC[C@H]1C(=O)N1CCCN1C(=O)OCc1ccccc1	0

Dear colleague, could you send me hemolysis at 1 h, 100 µM for each of the items below? Thanks.
1. O=CN1CCCN1C(=O)N1CCC[C@H]1C(=O)N1CCCN1C(=O)N1CCC[C@H]1C(=O)N1CCCN1C(=O)N1CCC[C@H]1C(=O)N1CCCN1C(=O)N1CCC[C@H]1C(=O)N1CCCN1C(=O)N1CCC[C@H]1C(=O)N1CCCN1C(=O)N1CCC[C@H]1C(=O)NCCO
2. CC(C)(C)OC(=O)[C@@H]1CCCN1C(=O)N1CCCN1C(=O)[C@@H]1CCCN1C(=O)N1CCCN1C(=O)[C@@H]1CCCN1C(=O)N1CCCN1C(=O)[C@@H]1CCCN1C(=O)N1CCCN1C(=O)OCc1ccccc1
3. CC(C)(C)OC(=O)N1CCC[C@H]1C(=O)N1CCCN1C(=O)N1CCC[C@H]1C(=O)N1CCCN1C(=O)N1CCC[C@H]1C(=O)N1CCCN1C(=O)N1CCC[C@H]1C(=O)N1CCCN1
4. O=CN1CCCN1C(=O)N1CCC[C@H]1C(=O)N1CCCN1C(=O)N1CCC[C@H]1C(=O)N1CCCN1C(=O)N1CCC[C@H]1C(=O)N1CCCN1C(=O)N1CCC[C@H]1C(=O)N1CCCN1C(=O)N1CCC[C@H]1C(=O)N1CCCN1C(=O)N1CCC[C@H]1C(=O)N1CCCN1C(=O)N1CCC[C@H]1C(=O)NCCO

A:
[-0.55, 0, 0.723, 1.4]

Dear colleague, could you send me hemolysis at 1 h, 100 µM for each of the items below? Thanks.
1. O=C(O)[C@@H]1CCCN1C(=O)N1CCCN1C(=O)[C@@H]1CCCN1C(=O)N1CCCN1C(=O)[C@@H]1CCCN1C(=O)N1CCCN1C(=O)[C@@H]1CCCN1C(=O)N1CCCN1C(=O)[C@@H]1CCCN1C(=O)N1CCCN1C(=O)[C@@H]1CCCN1C(=O)N1CCCN1C(=O)[C@@H]1CCCN1C(=O)N1CCCN1C(=O)[C@@H]1CCCN1C(=O)N1CCCN1C(=O)OCc1ccccc1
2. CC(C)(C)OC(=O)[C@@H]1CCCN1C(=O)N1CCCN1C(=O)[C@@H]1CCCN1C(=O)N1CCCN1C(=O)[C@@H]1CCCN1C(=O)N1CCCN1C(=O)[C@@H]1CCCN1C(=O)N1CCCN1C(=O)[C@@H]1CCCN1C(=O)N1CCCN1C(=O)[C@@H]1CCCN1C(=O)N1CCCN1C(=O)[C@@H]1CCCN1C(=O)N1CCCN1C(=O)[C@@H]1CCCN1C(=O)N1CCCN1.Cl
3. Cl.O=C(OCc1ccccc1)N1CCCN1C(=O)[C@@H]1CCCN1C(=O)N1CCCN1C(=O)[C@@H]1CCCN1C(=O)N1CCCN1C(=O)[C@@H]1CCCN1C(=O)N1CCCN1C(=O)[C@@H]1CCCN1

A:
1. -0.271
2. -0.181
3. 0.045

====

experiment: Hemolytic activity against human RBC at 3.125 uM after 1 hr by Drabkin's assay relative to control; assay type: ADME, cell-based, Erythrocyte; details: human red blood cells (erythrocytes), read-out: Activity
Value type: hemolysis at 1 h, 3.125 µM (%)
Give bare numbers, in %.

Some molecules with known hemolysis at 1 h, 3.125 µM results, for comparison:
O=CN1CCCN1C(=O)N1CCC[C@H]1C(=O)N1CCCN1C(=O)N1CCC[C@H]1C(=O)N1CCCN1C(=O)N1CCC[C@H]1C(=O)N1CCCN1C(=O)N1CCC[C@H]1C(=O)N1CCCN1C(=O)N1CCC[C@H]1C(=O)N1CCCN1C(=O)N1CCC[C@H]1C(=O)N1CCCN1C(=O)N1CCC[C@H]1C(=O)NCCO	-0.045
O=CN1CCCN1C(=O)N1CCC[C@H]1C(=O)N1CCCN1C(=O)N1CCC[C@H]1C(=O)N1CCCN1C(=O)N1CCC[C@H]1C(=O)N1CCCN1C(=O)N1CCC[C@H]1C(=O)N1CCCN1C(=O)N1CCC[C@H]1C(=O)N1CCCN1C(=O)N1CCC[C@H]1C(=O)N1CCCN1C(=O)N1CCC[C@H]1C(=O)N1CCCN1C(=O)N1CCC[C@H]1C(=O)NCCO	0.02
CC(C)(C)OC(=O)N1CCC[C@H]1C(=O)N1CCCN1C(=O)N1CCC[C@H]1C(=O)N1CCCN1C(=O)N1CCC[C@H]1C(=O)N1CCCN1C(=O)N1CCC[C@H]1C(=O)N1CCCN1C(=O)N1CCC[C@H]1C(=O)N1CCCN1C(=O)N1CCC[C@H]1C(=O)N1CCCN1C(=O)N1CCC[C@H]1C(=O)N1CCCN1C(=O)N1CCC[C@H]1C(=O)N1CCCN1C(=O)OCc1ccccc1	0.02
CC(C)(C)OC(=O)[C@@H]1CCCN1C(=O)N1CCCN1C(=O)[C@@H]1CCCN1C(=O)N1CCCN1C(=O)[C@@H]1CCCN1C(=O)N1CCCN1C(=O)[C@@H]1CCCN1C(=O)N1CCCN1C(=O)[C@@H]1CCCN1C(=O)N1CCCN1C(=O)[C@@H]1CCCN1C(=O)N1CCCN1C(=O)[C@@H]1CCCN1C(=O)N1CCCN1C(=O)[C@@H]1CCCN1C(=O)N1CCCN1C(=O)OCc1ccccc1	-0.12

Consider the record given below.
# molecule CC(C)(C)OC(=O)N1CCC[C@H]1C(=O)N1CCCN1C(=O)N1CCC[C@H]1C(=O)N1CCCN1C(=O)N1CCC[C@H]1C(=O)N1CCCN1C(=O)N1CCC[C@H]1C(=O)N1CCCN1C(=O)OCc1ccccc1 ; its hemolysis at 1 h, 3.125 µM = 0.038

====

assay: Hemolytic activity against human RBC at 50 uM after 1 hr by Drabkin's assay relative to control; assay type: ADME, cell-based, Erythrocyte; settings: human red blood cells (erythrocytes), read-out: Activity
Kindly supply the reported hemolysis at 1 h, 50 µM values for the records listed here.
One number for each entry, in %.

Some compounds with known hemolysis at 1 h, 50 µM results, for comparison:
CC(=O)N1CCCN1C(=O)N1CCC[C@H]1C(=O)N1CCCN1C(=O)N1CCC[C@H]1C(=O)N1CCCN1C(=O)N1CCC[C@H]1C(=O)N1CCCN1C(=O)N1CCC[C@H]1C(=O)N1CCCN1C(=O)N1CCC[C@H]1C(=O)N1CCCN1C(=O)N1CCC[C@H]1C(=O)N1CCCN1C(=O)N1CCC[C@H]1C(=O)N1CCCN1C(=O)N1CCC[C@H]1C(=O)NCCO	-0.57
CC(C)(C)OC(=O)N1CCC[C@H]1C(=O)N1CCCN1C(=O)N1CCC[C@H]1C(=O)N1CCCN1C(=O)N1CCC[C@H]1C(=O)N1CCCN1C(=O)N1CCC[C@H]1C(=O)N1CCCN1C(=O)OCc1ccccc1	-0.379

Consider the record given below.
# compound O=CN1CCCN1C(=O)N1CCC[C@H]1C(=O)N1CCCN1C(=O)N1CCC[C@H]1C(=O)N1CCCN1C(=O)N1CCC[C@H]1C(=O)N1CCCN1C(=O)N1CCC[C@H]1C(=O)N1CCCN1C(=O)N1CCC[C@H]1C(=O)NCCO ; its hemolysis at 1 h, 50 µM = -0.361

FYI, the data here is from ChEMBL document CHEMBL4196059.
